target-or-system: T1, corticotropin releasing factor 2 receptor; also: reference of the scale not given here
T1 sequence (Q13324 whole entry, species assumed, looked up): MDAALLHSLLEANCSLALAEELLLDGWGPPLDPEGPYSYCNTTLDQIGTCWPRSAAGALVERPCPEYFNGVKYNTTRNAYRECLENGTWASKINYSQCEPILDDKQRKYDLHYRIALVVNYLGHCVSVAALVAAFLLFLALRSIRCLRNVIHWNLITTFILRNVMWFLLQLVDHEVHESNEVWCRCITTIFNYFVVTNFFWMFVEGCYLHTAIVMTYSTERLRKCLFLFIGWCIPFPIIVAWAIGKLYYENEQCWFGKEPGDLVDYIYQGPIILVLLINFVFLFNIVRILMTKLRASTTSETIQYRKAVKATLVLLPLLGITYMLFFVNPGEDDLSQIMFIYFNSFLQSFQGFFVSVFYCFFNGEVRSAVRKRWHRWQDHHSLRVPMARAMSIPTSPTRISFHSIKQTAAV
run-description: cell-based or functional assay
Ends that are not written are not given here.
Give CRF2R Emax for every item shown.
Dear colleague, please return just the value in %, with no unit written.

Looking up ZGPPISIDLPFQLLRKMIEIEKQEKEKQQATTNRLLLDTI (C-terminal amide) [SEQ ID NO 13] , I see its CRF2R Emax listed as 79

Field CRF2R Emax (entry DNPSLSIDLPFHLLRTLLELARTQSQRERAEQNAIIFASV-NH2 [SEQ ID NO 185] ) reads 100

Recorded CRF2R Emax (binder IVLSLDVPIGLLQILLEQRAAREQATTNARILARV-NH2 [SEQ ID NO 136] ): 68

Measured CRF2R Emax, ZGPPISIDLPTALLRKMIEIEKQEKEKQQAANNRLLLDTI (C-terminal amide) [SEQ ID NO 61] : 89

Value of measured CRF2R Emax for the entry IVLSLDVPIGLLQILLEQAKQRAAREQATTNARILARV-NH2 [SEQ ID NO 110] : 100

For this binder ( ZGPPISIDLPAQLLRKMIEIEKQEKEKQQAANNRLLLDTI (C-terminal amide) [SEQ ID NO 211] ), measured CRF2R Emax is 100

Record summary for ZGPPISIDLPTELLRKMIEIEKQEKEKQQAANNRLLLDTI (C-terminal amide) [SEQ ID NO 71] : reported CRF2R Emax = 56

Looking up IVLSLDVPIGLLQILLEMTKADQLAQQAHSNRKLLDIA-NH2 [SEQ ID NO 155] , I found its CRF2R Emax recorded as 94

CRF2R Emax for ZGPPISIDVPTYLLRKMIEIEKQEKEKQQATTNARILARV (C-terminal amide) [SEQ ID NO 170] is 83

For record ZGPPISIDLPFHLLRKMIEIEKQEKEKQQATTNARILARV (C-terminal amide) [SEQ ID NO 146] the listed CRF2R Emax is 84.5
